# target_system: Induced myeloid leukemia cell differentiation protein Mcl-1 (Homo sapiens) (UniProt Q07820)
# Sequence (Q07820 whole entry, looked up): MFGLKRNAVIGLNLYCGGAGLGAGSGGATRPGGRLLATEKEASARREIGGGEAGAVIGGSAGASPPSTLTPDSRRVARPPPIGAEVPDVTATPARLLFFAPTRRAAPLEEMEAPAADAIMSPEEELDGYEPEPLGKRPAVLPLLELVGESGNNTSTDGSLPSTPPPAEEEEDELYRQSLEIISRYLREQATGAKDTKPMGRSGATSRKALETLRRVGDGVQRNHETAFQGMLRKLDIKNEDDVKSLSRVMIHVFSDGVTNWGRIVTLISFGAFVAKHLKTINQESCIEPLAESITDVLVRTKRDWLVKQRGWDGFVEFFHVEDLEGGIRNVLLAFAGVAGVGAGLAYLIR
# experiment_summary: MCL1 binding to BIM-BH3 peptide, inhibitors, late-stage follow-up, biochemical, fluorescence polarization, assay provider data, powder samples (AID 493086)
# test_conditions: GST-MCL1 / FITC-BIM-BH3 fluorescence polarization
Active and inactive are the calls of the source.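 How the source made its calls: active means IC50 at or below 10 µM; inactive means IC50 above 10 µM.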
Classes to choose from: active, inactive

See these solved cases before continuing.
[
  {
    "compound": "Cc1ccc(-c2cc(C(=O)N(C)CC(=O)Nc3ccccc3Br)c3ccccc3n2)o1",
    "category_label": "inactive"
  },
  {
    "compound": "O=C(c1cc(-c2ccco2)nc2ccccc12)N1CCN(Cc2ccccc2)CC1",
    "category_label": "inactive"
  },
  {
    "compound": "COc1cccc(NC(=O)c2cc(-c3ccc(C)o3)nc3ccccc23)c1",
    "category_label": "inactive"
  },
  {
    "compound": "COc1cccc(CC(=O)Nc2nnc(Cc3ccc(OC)c(OC)c3)s2)c1",
    "category_label": "inactive"
  },
  {
    "compound": "Cc1ccc(-c2cc(C(=O)NCCCn3ccnc3)c3cc(Br)ccc3n2)o1",
    "category_label": "inactive"
  },
  {
    "compound": "CCN1CCN(C(=O)c2cc(-c3ccco3)nc3ccccc23)CC1",
    "category_label": "active"
  }
]

State the result this test recorded for `COc1ccc(Cc2nnc(NC(=O)Cc3ccccn3)s2)cc1OC` .
inactive

State the result this test recorded for `COc1ccc(Cc2nnc(NC(=O)Cc3ccc(Oc4ccccc4)cc3)s2)cc1OC` .
inactive

State the result this test recorded for `Cc1ccc(-c2cc(C(=O)Nc3ccccn3)c3ccccc3n2)o1` .
inactive

State the result this test recorded for `Cc1ccc(-c2cc(C(=O)Nc3ccccc3C(N)=O)c3ccccc3n2)o1` .
inactive

====

# target_system: Induced myeloid leukemia cell differentiation protein Mcl-1 (Homo sapiens)
# experiment_summary: MCL1 binding to BIM-BH3 peptide, inhibitors, late-stage follow-up, biochemical, fluorescence polarization, assay provider data, powder samples (AID 493086)
# test_conditions: GST-MCL1 / FITC-BIM-BH3 fluorescence polarization
Active and inactive are the calls of the source.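 The calls were made as follows: active = IC50 at or below 10 µM; inactive = IC50 above 10 µM.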
Classes to choose from: T (active), F (inactive)

[
  {
    "compound": "O=C(Nc1ccccc1F)c1cc(-c2ccco2)nc2ccccc12",
    "category_label": "F"
  },
  {
    "compound": "O=C(CCn1nnc2ccccc21)Nc1nnc(Cc2ccc(F)cc2)s1",
    "category_label": "F"
  },
  {
    "compound": "Cc1ccc(-c2cc(C(=O)N3CCN(c4ccc(F)cc4)CC3)c3ccccc3n2)o1",
    "category_label": "F"
  },
  {
    "compound": "CCN(CC)CCNC(=O)c1cc(-c2ccco2)nc2ccccc12",
    "category_label": "F"
  },
  {
    "compound": "Cc1ccc(NC(=O)c2cc(-c3ccc(C)o3)nc3ccccc23)cc1",
    "category_label": "F"
  }
]

State the result this test recorded for `CCc1nnc(NC(=O)c2cc(-c3ccc(C)o3)nc3ccccc23)s1` .
F

State the result this test recorded for `O=C(Nc1nc2ccccc2s1)c1cc(-c2ccco2)nc2ccccc12` .
F

State the result this test recorded for `COc1cccc(NC(=O)CN(C)C(=O)c2cc(-c3ccco3)nc3ccccc23)c1` .
F

State the result this test recorded for `COc1cccc(NC(=O)c2cc(-c3ccco3)nc3ccccc23)c1` .
F

State the result this test recorded for `CCCN(C(=O)c1cc(-c2ccco2)nc2ccccc12)c1c(N)n(Cc2ccccc2)c(=O)[nH]c1=O` .
F

State the result this test recorded for `O=C(Nc1ccc(F)cc1F)c1cc(-c2ccco2)nc2ccccc12` .
F

State the result this test recorded for `CCCCN(C(=O)c1cc(-c2ccco2)nc2ccccc12)c1c(N)n(CCC)c(=O)[nH]c1=O` .
F

State the result this test recorded for `CCOC(=O)c1cc(-c2ccco2)nc2c1c(C)nn2-c1ccccc1` .
F

State the result this test recorded for `CN(CC(=O)Nc1ccc(F)cc1)C(=O)c1cc(-c2ccco2)nc2ccccc12` .
F

====

# target_system: Induced myeloid leukemia cell differentiation protein Mcl-1 (Homo sapiens) (UniProt Q07820)
# experiment_summary: MCL1 binding to BIM-BH3 peptide, inhibitors, late-stage follow-up, biochemical, fluorescence polarization, assay provider data, powder samples (AID 493086)
# test_conditions: GST-MCL1 / FITC-BIM-BH3 fluorescence polarization
Activity calls are given as the source filed them.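 How the source made its calls: active means IC50 at or below 10 µM; inactive means IC50 above 10 µM.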
Classes to choose from: Yes (active), No (inactive)

[
  {
    "compound": "CCOc1cc(N2CCOCC2)c(OCC)cc1NC(=O)c1cc(-c2ccco2)nc2ccccc12",
    "category_label": "No"
  },
  {
    "compound": "COC(=O)C1CCN(C(=O)c2cc(-c3ccco3)nc3ccccc23)CC1",
    "category_label": "Yes"
  },
  {
    "compound": "O=C(NC1CC1)c1cc(-c2ccco2)nc2ccccc12",
    "category_label": "Yes"
  },
  {
    "compound": "CC1CCCN(C(=O)c2cc(-c3ccco3)nc3ccccc23)C1 (stereo unspecified)",
    "category_label": "No"
  },
  {
    "compound": "Cc1ccc(-c2cc(C(=O)N3CC(C)CC(C)C3)c3ccccc3n2)o1 (stereo unspecified)",
    "category_label": "No"
  }
]

State the result this test recorded for `O=C(c1cc(-c2ccco2)nc2ccccc12)N1CCN(c2ccc(F)cc2)CC1` .
No

State the result this test recorded for `CCC(=O)Nc1nnc(Cc2ccccc2)s1` .
No

State the result this test recorded for `CC(C)CCNC(=O)c1cc(-c2ccco2)nc2ccccc12` .
No

State the result this test recorded for `O=C(Nc1nncs1)c1cc(-c2ccco2)nc2ccccc12` .
No

State the result this test recorded for `Cc1ccc(-c2cc(C(=O)NCCN3CCOCC3)c3ccccc3n2)o1` .
No

State the result this test recorded for `O=C(Nc1cccc(F)c1)c1cc(-c2ccco2)nc2ccccc12` .
No

====

# target_system: Induced myeloid leukemia cell differentiation protein Mcl-1 (Homo sapiens)
# experiment_summary: MCL1 binding to BIM-BH3 peptide, inhibitors, late-stage follow-up, biochemical, fluorescence polarization, assay provider data, powder samples (AID 493086)
# test_conditions: GST-MCL1 / FITC-BIM-BH3 fluorescence polarization
Activity calls are given as the source filed them.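 Rule for the calls: active = IC50 at or below 10 µM; inactive = IC50 above 10 µM.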
recorded_endpoint: IC50

The examples below pair each entry with its known result.
[
  {
    "molecule": "Cc1cccc(NC(=O)c2cc(-c3ccco3)nc3ccccc23)n1",
    "recorded_endpoint": "IC50",
    "recorded_measurement": "inactive"
  },
  {
    "molecule": "COc1ccc(Cc2nnc(NC(=O)Cc3ccc(C)cc3)s2)cc1OC",
    "recorded_endpoint": "IC50",
    "recorded_measurement": "> 20 µM (inactive)"
  },
  {
    "molecule": "COc1ccc(Cc2nnc(NC(=O)Cc3ccsc3)s2)cc1OC",
    "recorded_endpoint": "IC50",
    "recorded_measurement": "> 20 µM (inactive)"
  },
  {
    "molecule": "COc1ccc(Cc2nnc(NC(=O)Cc3cccs3)s2)cc1",
    "recorded_endpoint": "IC50",
    "recorded_measurement": "> 20 µM (inactive)"
  },
  {
    "molecule": "O=C(NC1CCC(O)CC1)c1cc(-c2ccco2)nc2ccccc12 (stereo not drawn)",
    "recorded_endpoint": "IC50",
    "recorded_measurement": "inactive"
  },
  {
    "molecule": "COc1ccc(NC(=O)c2cc(-c3ccc(C)o3)nc3ccccc23)c(OC)c1",
    "recorded_endpoint": "IC50",
    "recorded_measurement": "> 20 µM (inactive)"
  }
]

Provide Induced myeloid leukemia cell differentiation protein Mcl-1 (Homo sapiens) IC50 reading for Cc1ccc(-c2cc(C(=O)NCC(c3ccccc3)N(C)C)c3ccccc3n2)o1 (stereo not drawn) .
> 20 µM (inactive)

Provide Induced myeloid leukemia cell differentiation protein Mcl-1 (Homo sapiens) IC50 reading for `COc1ccc(Cc2nnc(NC(=O)Cc3ccncc3)s2)cc1OC` .
> 20 µM (inactive)

Provide Induced myeloid leukemia cell differentiation protein Mcl-1 (Homo sapiens) IC50 reading for `Cc1ccc(-c2cc(C(=O)N3CCN(c4ccccc4O)CC3)c3ccccc3n2)o1` .
> 20 µM (inactive)

====

# target_system: Induced myeloid leukemia cell differentiation protein Mcl-1 (Homo sapiens) (UniProt Q07820)
# experiment_summary: MCL1 binding to BIM-BH3 peptide, inhibitors, late-stage follow-up, biochemical, fluorescence polarization, assay provider data, powder samples (AID 493086)
# test_conditions: GST-MCL1 / FITC-BIM-BH3 fluorescence polarization
Active and inactive are the calls of the source.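 Rule for the calls: active = IC50 at or below 10 µM; inactive = IC50 above 10 µM.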
Classes to choose from: active, inactive

See these solved cases before continuing.
[
  {
    "compound": "COc1ccc(NC(=O)c2cc(-c3ccco3)nc3ccccc23)cc1S(=O)(=O)N1CCOCC1",
    "category_label": "inactive"
  },
  {
    "compound": "COc1ccc(Cc2nnc(NC(=O)Cc3c[nH]c4ccccc34)s2)cc1OC",
    "category_label": "inactive"
  },
  {
    "compound": "CCOC(=O)C1CCCN(C(=O)c2cc(-c3ccco3)nc3ccccc23)C1 (configuration not stated)",
    "category_label": "active"
  },
  {
    "compound": "COc1ccc(Cc2nnc(NC(=O)C(=O)c3ccco3)s2)cc1OC",
    "category_label": "inactive"
  },
  {
    "compound": "COc1ccccc1NC(=O)c1cc(-c2ccc(C)o2)nc2ccccc12",
    "category_label": "inactive"
  }
]

State the result this test recorded for `COc1ccc(CC(=O)Nc2nnc(Cc3ccc(OC)c(OC)c3)s2)cc1` .
inactive

State the result this test recorded for `Cc1nnc(NC(=O)c2cc(-c3ccco3)nc3ccccc23)s1` .
inactive

State the result this test recorded for `CCCCn1c(N)c(N(CC(C)C)C(=O)c2cc(-c3ccco3)nc3ccccc23)c(=O)[nH]c1=O` .
inactive

State the result this test recorded for `CN(CCOc1ccccc1)C(=O)c1cc(-c2ccco2)nc2ccccc12` .
inactive

State the result this test recorded for Cc1ccc(-c2cc(C(=O)N3CCCC(C(F)(F)F)C3)c3ccccc3n2)o1 (configuration not stated) .
inactive

State the result this test recorded for `NS(=O)(=O)c1ccc(CCNC(=O)c2cc(-c3ccco3)nc3ccccc23)cc1` .
inactive

State the result this test recorded for `Cc1ccc(-c2cc(C(=O)Nc3cccc(S(=O)(=O)N(C)C)c3)c3ccccc3n2)o1` .
inactive

State the result this test recorded for `Cc1ccc(NC(=O)c2cc(-c3ccco3)nc3ccccc23)cc1S(=O)(=O)N1CCOCC1` .
inactive

Data provenance is PubChem BioAssay AID493086.
